# T/C values compiled below
tested on: L1210 leukemia ip in BDF1 mice, survival T/C; experiment: NCI In Vivo Anticancer Drug Screen. Data for tumor model L1210 Leukemia (intraperitoneal) in B6D2F1 (BDF1) mice; details: endpoint: mean survival time; dose: 200.0 mg/kg/injection; schedule: Q04DX003 (ip); vehicle: saline; higher = longer survival
Inconclusive results and toxic doses are left out.

In the examples that follow, each entry is paired with its recorded T/C.
>  <compound>
CC(=O)CC(=O)NCCNCCNC(=O)CC(C)=O

>  <readoutValue>
98 % of control

$$$$
>  <compound>
CN(C)CCC(C)(N)c1cccc2ccccc12 (configuration not stated)

>  <readoutValue>
107 % of control

$$$$
>  <compound>
O=S(=O)(O)c1ccc(O)cc1

>  <readoutValue>
97 % of control

$$$$
>  <compound>
O=C(O)/C=C/C(=O)Nc1cccc(Oc2ccc([N+](=O)[O-])cc2[N+](=O)[O-])c1

>  <readoutValue>
111 % of control

$$$$
>  <compound>
O=C(c1ccccc1)N1CCC(CCO)C(O)C1Cc1c[nH]c2ccccc12 (configuration not stated)

>  <readoutValue>
94 % of control

$$$$
>  <compound>
CCC(C(=O)O)C(O)(CC(=O)O)C(=O)O (configuration not stated)

>  <readoutValue>
101 % of control

$$$$

Input line: Any idea what its T/C is? The compound is c1cncc(C2OCCO2)c1
Output line: 92 % of control

Input line: Same question for O=[N+]([O-])c1ccc(OCc2ccc(S(=O)(=O)F)c(Cl)c2)c(Cl)c1 please.
Output line: 104 % of control

Input line: Same question for CCOC(=N)N1C(N)=NC(=O)C1c1ccccc1 (configuration not stated) please.
Output line: 103 % of control

Input line: Same question for O=C1OC(=O)C2C3C=CC(C4C=CC43)C12 (configuration not stated) please.
Output line: 93 % of control

Input line: Same question for CC12CCCCC1CC/C(=C\c1ccco1)C2=O (configuration not stated) please.
Output line: 100 % of control

Input line: Same question for CCN(CC)C(=O)N(CC)C(=O)CN(C)C please.
Output line: 102 % of control

* * *

# T/C values compiled below
test system: L1210 leukemia ip in BDF1 mice, survival T/C; assay: NCI In Vivo Anticancer Drug Screen. Data for tumor model L1210 Leukemia (intraperitoneal) in B6D2F1 (BDF1) mice; conditions: endpoint: mean survival time; dose: 400.0 mg/kg/injection; schedule: Q01DX009 (ip); vehicle: saline with Tween-80; higher = longer survival
Toxic doses and inconclusive results are not listed.

In the examples that follow, each entry is paired with its recorded T/C.
>  <chemicalString>
Cc1nc(N)c(=O)[nH]c1C

>  <T/C>
104 % of control

$$$$
>  <chemicalString>
Fc1ccc(C(c2ccc(F)cc2)C(Cl)Cl)cc1

>  <T/C>
93 % of control

$$$$
>  <chemicalString>
COC(=O)C1=CC2c3ccccc3C1c1ccccc12

>  <T/C>
98 % of control

$$$$
>  <chemicalString>
O=C(Nc1ccccc1F)Oc1cccc2ccccc12

>  <T/C>
87 % of control

$$$$

Lab note: next compound to report on.
Input line: Any idea what its T/C is? The compound is CC(C)c1cc(C(C)C)n2nc(N)nc2n1
Output line: 105 % of control

* * *

tested on: L1210 leukemia ip in BDF1 mice, survival T/C; test: NCI In Vivo Anticancer Drug Screen. Data for tumor model L1210 Leukemia (intraperitoneal) in B6D2F1 (BDF1) mice; conditions: endpoint: mean survival time; dose: 50.0 mg/kg/injection; schedule: Q01DX001 (ip); vehicle: saline with Tween-80; higher = longer survival
Inconclusive results and toxic doses are left out.
# T/C values compiled below

In the examples that follow, each entry is paired with its recorded T/C.
>  <compound>
CSc1ccc(NC(=O)C(C)Oc2ccccc2)cc1 (stereo unspecified)

>  <T/C>
95 % of control

$$$$
>  <compound>
O=C(Oc1ccccc1)c1ccc2[nH]c(=O)c(C(=O)O)nc2c1

>  <T/C>
100 % of control

$$$$
>  <compound>
C[n+]1ccc(Nc2ccc(NC(=O)c3ccc(N)cc3[N+](=O)[O-])cc2)cc1

>  <T/C>
97 % of control

$$$$
>  <compound>
CCCCCCCCCCC(CCCCCCCCCC)CC(C)(C)C

>  <T/C>
103 % of control

$$$$
>  <compound>
CCCCN(CCCC)C(=O)N(CCCC)CCCC

>  <T/C>
98 % of control

$$$$

Lab note: next compound to report on.
Input line: Any idea what its T/C is? The compound is CCOC(=O)CCC(NC(=O)c1ccc(NCc2nnc3nc(N)nc(N)c3n2)cc1)C(=O)OCC (stereo unspecified)
Output line: 95 % of control

* * *

tested on: L1210 leukemia ip in BDF1 mice, survival T/C; assay: NCI In Vivo Anticancer Drug Screen. Data for tumor model L1210 Leukemia (intraperitoneal) in B6D2F1 (BDF1) mice; details: endpoint: mean survival time; dose: 25.0 mg/kg/injection; schedule: Q01DX009 (ip); vehicle: water; higher = longer survival
Inconclusive results and toxic doses are left out.
# T/C values compiled below

>  <compound>
Clc1ccc(-c2cc(=[N+]3CCC4(CC3)SSC3(CC[N+](=c5cc(-c6ccc(Cl)cc6)ss5)CC3)S4)ss2)cc1 (stereo not given)

>  <T/C>
90 % of control

$$$$
>  <compound>
O=C(N=c1cc(-c2ccc(Cl)cc2)ss1)C(Cc1ccccc1)N1C(=O)c2ccccc2C1=O (stereo not given)

>  <T/C>
102 % of control

$$$$
>  <compound>
CC(C)=CCC1=CC(=O)c2ccccc2C1=O

>  <T/C>
102 % of control

$$$$

Input line: Any idea what its T/C is? The compound is O=C(NCCNCc1ccccc1)c1ccccc1
Output line: 97 % of control

Input line: Same question for CS(=O)(=O)OCc1c(O)c2c(c(O)c1COS(C)(=O)=O)C(=O)C=CC2=O please.
Output line: 94 % of control

* * *

Test system: L1210 leukemia ip in BDF1 mice, survival T/C
Assay: NCI In Vivo Anticancer Drug Screen. Data for tumor model L1210 Leukemia (intraperitoneal) in B6D2F1 (BDF1) mice
Conditions: endpoint: mean survival time; dose: 100.0 mg/kg/injection; schedule: Q04DX003 (ip); vehicle: saline with Tween-80; higher = longer survival
Procedure: The antitumor activity of compounds was measured in mice bearing transplantable tumors. Survival or tumor size were measured and the results are expressed as the measurement made in the treated group (T) divided by the measurement made in the vehicle treated control group (C). The tumor model used in this assay is L1210 Leukemia (intraperitoneal) in B6D2F1 (BDF1) mice
Inconclusive results and toxic doses are left out.
readoutName: T/C

In the examples that follow, each entry is paired with its recorded T/C.
>  <compound>
O=C1CC(=O)NC(=S)N1

>  <readoutValue>
101 % of control

$$$$
>  <compound>
COc1ccc(C(C)N=CC(C)(C)C)cc1 (stereo unspecified)

>  <readoutValue>
101 % of control

$$$$
>  <compound>
COc1cc(Oc2c(OC)cc(C(C)=O)cc2OC)cc(OC)c1OC

>  <readoutValue>
101 % of control

$$$$
>  <compound>
Cc1cccc(OC(F)(F)C(F)Cl)c1 (stereo unspecified)

>  <readoutValue>
93 % of control

$$$$

Input line: Checklist item: T/C tested on L1210 leukemia ip in BDF1 mice, survival T/C, entry N#[N+]c1c(C(=O)O)[nH]c(=O)[nH]c1=O , value?
Output line: 95 % of control

Input line: Same question for c1cc[c]([Bi]([c]2ccccc2)[c]2ccccc2)cc1 please.
Output line: 97 % of control

* * *

system: L1210 leukemia ip in BDF1 mice, survival T/C; test: NCI In Vivo Anticancer Drug Screen. Data for tumor model L1210 Leukemia (intraperitoneal) in B6D2F1 (BDF1) mice; settings: endpoint: mean survival time; dose: 3.12 mg/kg/injection; schedule: Q01DX009 (ip); vehicle: saline; higher = longer survival
Toxic doses and inconclusive results are not listed.
readoutName: T/C

In the examples that follow, each entry is paired with its recorded T/C.
>  <molecule>
CCCCCCCCCCCCCCCCCC[N+](C)(C)C

>  <readoutValue>
94 % of control

$$$$
>  <molecule>
c1ccc2c(c1)C1c3cccc[n+]3C2C2C1CC1C3c4ccccc4C(C12)[n+]1ccccc13 (centres undefined)

>  <readoutValue>
111 % of control

$$$$
>  <molecule>
COc1cccc2c1C(=O)c1c(O)c3c(c(O)c1C2=O)C[C@@](O)(/C(C)=N\NC(N)=O)C[C@@H]3OC1CC(N)C(O)C(C)O1 (some centres undefined)

>  <readoutValue>
113 % of control

$$$$

Lab note: next molecule to report on.
Input line: Checklist item: T/C tested on L1210 leukemia ip in BDF1 mice, survival T/C, entry O=C(C=C(C(F)(F)F)C(F)(F)F)c1cccs1 , value?
Output line: 101 % of control
